Target: Corticosteroid-binding globulin (Homo sapiens) (UniProt P08185)
Sequence (whole entry): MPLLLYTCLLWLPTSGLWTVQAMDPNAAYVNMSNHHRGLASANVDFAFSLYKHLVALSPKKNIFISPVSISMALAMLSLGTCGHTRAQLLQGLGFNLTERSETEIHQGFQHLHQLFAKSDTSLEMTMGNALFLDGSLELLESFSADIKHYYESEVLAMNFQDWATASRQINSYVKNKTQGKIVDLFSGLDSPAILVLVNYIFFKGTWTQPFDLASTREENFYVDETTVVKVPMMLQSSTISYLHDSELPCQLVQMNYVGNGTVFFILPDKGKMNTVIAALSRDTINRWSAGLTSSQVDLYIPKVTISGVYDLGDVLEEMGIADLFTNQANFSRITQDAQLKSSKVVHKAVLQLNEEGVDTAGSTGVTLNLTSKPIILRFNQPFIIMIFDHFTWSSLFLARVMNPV
Test: Binding affinity to the corticosteroid-binding globulin (CBG) receptor.
What Log K was measured for each of the following?

Below are some compounds; for each one, tell me its Log K.
1. C[C@]12C[C@H](O)[C@H]3[C@@H](CCC4=CC(=O)CC[C@@]43C)[C@@H]1CC[C@@H]2C(=O)CO
2. C[C@]12CC[C@H]3[C@@H](CCC4=CC(=O)CC[C@@]43C)[C@@H]1CC[C@@H]2C(=O)CO
3. C[C@]12CCC(=O)C=C1CC[C@@H]1[C@@H]2[C@@H](O)C[C@@]2(C)[C@H]1CC[C@]2(O)C(=O)CO
4. C[C@]12CC[C@H]3[C@@H](CCC4=CC(=O)CC[C@@H]43)[C@@H]1CC[C@@H]2O
5. CC(=O)[C@H]1CC[C@H]2[C@@H]3CCC4=CC(=O)CC[C@@H]4[C@H]3CC[C@]12C
6. CC(=O)[C@@]1(O)[C@H](O)C[C@H]2[C@@H]3CC=C4CC(=O)CC[C@]4(C)[C@H]3CC[C@@]21C

Reply text:
7.88
7.65
7.88
7.2
7.12
6.14

Please report Log K for every entry that follows.
1. C[C@@H]1C[C@@]2(C)C(=CC1=O)CC[C@H]1[C@@H]3CC[C@](O)(C(=O)CO)[C@@]3(C)C[C@H](O)[C@@]12F
2. CC(=O)OCC(=O)[C@@]1(O)CC[C@H]2[C@@H]3CCC4=CC(=O)CC[C@]4(C)[C@H]3[C@@H](O)C[C@@]21C

Reply text:
1: 5.8; 2: 7.55

###

Molecular target: Corticosteroid-binding globulin (Homo sapiens) (UniProt P08185)
Assay: Binding affinity to the corticosteroid-binding globulin (CBG) receptor.
Assignment: determine reported Log K for the given compounds.
One number for each entry.

// solved cases for Log K follow
C[C@]12CCC(=O)C=C1CC[C@@H]1[C@@H]2C(=O)C[C@@]2(C)[C@H]1CC[C@]2(O)C(=O)CO	6.89
C[C@]12CC[C@@H]3c4ccc(O)cc4CC[C@H]3[C@@H]1C[C@@H](O)[C@@H]2O	5
C[C@]12CC[C@H](O)CC1=CC[C@@H]1[C@@H]2CC[C@]2(C)C(=O)CC[C@@H]12	5
C[C@]12CC[C@@H]3c4ccc(O)cc4CC[C@H]3[C@@H]1CC[C@@H]2O	5

# return Log K for each item in the list
1. CC(=O)[C@H]1CC[C@H]2[C@@H]3CCC4=CC(=O)CC[C@]4(C)[C@H]3C(=O)C[C@]12C
2. CC(=O)[C@@]1(O)CC[C@H]2[C@@H]3CCC4=CC(=O)CC[C@]4(C)[C@H]3CC[C@@]21C
3. CC(=O)[C@H]1CC[C@H]2[C@@H]3CC=C4C[C@@H](O)CC[C@]4(C)[C@H]3CC[C@]12C
4. C[C@]12CC[C@H]3[C@@H](CCC4=CC(=O)CC[C@@]43C)[C@@H]1CC[C@@H]2O

Reply text:
1. 6.78
2. 7.74
3. 5.25
4. 6.72
